System tested: human Y5 receptor (hNPY-5) (Homo sapiens)
Construct: expressed in transfected cells; host or cells: mouse fibroblast LM(tk-) cells, e.g. L-hY5-7 (ATCC CRL-11995)
Sequence (Q15761 whole entry): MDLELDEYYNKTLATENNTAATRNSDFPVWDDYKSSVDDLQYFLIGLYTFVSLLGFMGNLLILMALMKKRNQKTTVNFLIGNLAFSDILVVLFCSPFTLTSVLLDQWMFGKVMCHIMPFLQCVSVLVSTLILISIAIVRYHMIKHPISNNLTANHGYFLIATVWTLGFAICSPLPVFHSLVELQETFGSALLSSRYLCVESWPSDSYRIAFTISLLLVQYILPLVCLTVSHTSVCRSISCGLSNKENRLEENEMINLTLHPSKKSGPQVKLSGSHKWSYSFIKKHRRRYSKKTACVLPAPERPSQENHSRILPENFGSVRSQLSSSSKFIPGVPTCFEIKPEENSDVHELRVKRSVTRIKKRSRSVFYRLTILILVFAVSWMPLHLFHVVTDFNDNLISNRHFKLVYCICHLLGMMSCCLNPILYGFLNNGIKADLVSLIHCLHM
Assay comment: Radioligand binding to membranes, cloned human Y5 receptor
Measurement setup: cloned human NPY Y5 receptor, radioligand competition binding; Tables 1-3; read-out: Ki, nM hNPY-5

| Molecular string | System tested | Readout units | Ki |
| --- | --- | --- | --- |
| COCC(=O)N[C@H]1CC[C@H](CNc2nc3c(s2)CCOc2ccccc2-3)CC1 | human Y5 receptor (hNPY-5) (Homo sapiens) | nM | 40 |
| Cn1cnc(S(=O)(=O)NCCCCCNc2nc3c(s2)CCCc2ccc(F)cc2-3)c1 | human Y5 receptor (hNPY-5) (Homo sapiens) | nM | 15.5 |
| COc1cccc(-c2csc(N[C@H]3CC[C@H](CNS(C)(=O)=O)CC3)n2)c1 | human Y5 receptor (hNPY-5) (Homo sapiens) | nM | 150 |
| NS(=O)(=O)N[C@H]1CC[C@H](CNc2nc3c(s2)CCCc2ccc(F)cc2-3)CC1 | human Y5 receptor (hNPY-5) (Homo sapiens) | nM | 2.3 |
| O=S(=O)(Cc1ccccc1)NC[C@H]1CC[C@H](Nc2nc3c(s2)CCCc2ccc(F)cc2-3)CC1 | human Y5 receptor (hNPY-5) (Homo sapiens) | nM | 10.3 |
| CS(=O)(=O)N[C@H]1CC[C@H](CNc2nc3c(s2)CCOc2ccccc2-3)CC1 | human Y5 receptor (hNPY-5) (Homo sapiens) | nM | 15.3 |
| O=S(=O)(N[C@H]1CC[C@H](CNc2nc3c(s2)CCCc2ccc(F)cc2-3)CC1)c1ccccc1F | human Y5 receptor (hNPY-5) (Homo sapiens) | nM | 3.9 |
| CS(=O)(=O)NCCCCCNc1nc2c(s1)CCCc1ccc(F)cc1-2 | human Y5 receptor (hNPY-5) (Homo sapiens) | nM | 2.4 |
